Origin of the recorded values: ChEMBL document CHEMBL1961873

- MEASURED TARGET: Receptor tyrosine-protein kinase erbB-4 (Homo sapiens) (UniProt Q15303);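 also: each value is a mean percent inhibition of ERBB4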
- Sequence (Q15303 whole entry): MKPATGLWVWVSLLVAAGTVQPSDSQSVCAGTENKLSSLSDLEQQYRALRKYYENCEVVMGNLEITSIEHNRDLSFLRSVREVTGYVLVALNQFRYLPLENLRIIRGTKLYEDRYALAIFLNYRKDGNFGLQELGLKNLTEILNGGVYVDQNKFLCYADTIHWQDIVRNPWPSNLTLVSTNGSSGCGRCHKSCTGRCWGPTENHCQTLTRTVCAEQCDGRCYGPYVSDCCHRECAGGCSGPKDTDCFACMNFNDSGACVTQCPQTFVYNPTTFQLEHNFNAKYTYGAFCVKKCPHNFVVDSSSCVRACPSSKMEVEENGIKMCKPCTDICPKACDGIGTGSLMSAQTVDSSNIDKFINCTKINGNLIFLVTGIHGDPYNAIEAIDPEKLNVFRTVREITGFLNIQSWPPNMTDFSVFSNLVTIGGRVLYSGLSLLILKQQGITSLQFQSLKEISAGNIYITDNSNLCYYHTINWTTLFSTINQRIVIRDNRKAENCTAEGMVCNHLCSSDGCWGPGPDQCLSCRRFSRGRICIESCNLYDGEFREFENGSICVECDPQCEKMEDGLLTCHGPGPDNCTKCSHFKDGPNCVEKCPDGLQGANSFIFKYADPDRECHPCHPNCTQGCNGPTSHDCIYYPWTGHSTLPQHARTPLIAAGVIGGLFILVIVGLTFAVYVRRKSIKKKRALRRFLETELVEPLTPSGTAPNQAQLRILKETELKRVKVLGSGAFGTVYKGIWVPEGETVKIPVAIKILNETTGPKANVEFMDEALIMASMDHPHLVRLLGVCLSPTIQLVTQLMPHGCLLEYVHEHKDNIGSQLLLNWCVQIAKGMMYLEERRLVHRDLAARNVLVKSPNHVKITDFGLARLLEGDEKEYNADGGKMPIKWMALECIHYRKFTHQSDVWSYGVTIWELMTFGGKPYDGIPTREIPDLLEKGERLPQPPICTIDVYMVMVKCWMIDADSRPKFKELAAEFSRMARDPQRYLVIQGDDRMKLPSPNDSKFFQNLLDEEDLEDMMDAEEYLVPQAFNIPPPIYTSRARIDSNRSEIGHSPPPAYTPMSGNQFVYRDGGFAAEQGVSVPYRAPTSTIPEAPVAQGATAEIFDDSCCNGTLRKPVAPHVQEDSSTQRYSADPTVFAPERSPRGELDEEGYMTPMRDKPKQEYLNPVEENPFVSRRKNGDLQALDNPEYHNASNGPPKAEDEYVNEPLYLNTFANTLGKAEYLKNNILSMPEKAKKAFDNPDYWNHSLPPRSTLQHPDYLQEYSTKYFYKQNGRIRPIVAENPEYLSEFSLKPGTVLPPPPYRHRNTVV
- ASSAY CONDITIONS: at 1 µM
Mark Criterion met for reported inhibition of 20% or greater; mark Criterion not met for anything smaller.

**Q:** # bool: inhibition of `ON=C1CCc2cc(-c3nc(C4CCNCC4)[nH]c3-c3ccncc3)ccc21` >= 20%
**A:** Criterion not met

**Q:** Hi team, for `CN1CCN(C(=O)c2ccc(NC(=O)Nc3ccc(N(C)c4ccnc(Nc5ccc(CS(C)(=O)=O)cc5)n4)cc3)cc2)CC1` , is the recorded inhibition at or above 20%?
**A:** Criterion not met

**Q:** Reported inhibition at or above 20%? `COc1cc2ncn(-c3cc(OCc4ccccc4S(C)(=O)=O)c(C#N)s3)c2cc1OC`
**A:** Criterion not met

**Q:** inhibition >= 20% for `COc1ccc(-c2nn3ncccc3c2-c2ccnc(Nc3cccc(C(F)(F)F)c3)n2)cc1` ?
**A:** Criterion met

**Q:** Please indicate if the recorded inhibition for `Nc1ccc(C#Cc2cncnc2Nc2ccc(OCc3cccc(F)c3)c(Cl)c2)cc1` meets or exceeds 20%.
**A:** Criterion met

---

- MEASURED TARGET: Proto-oncogene tyrosine-protein kinase receptor Ret (Homo sapiens) (UniProt P07949);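 also: each listed value is an averaged inhibition figure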
- Sequence (P07949 whole entry): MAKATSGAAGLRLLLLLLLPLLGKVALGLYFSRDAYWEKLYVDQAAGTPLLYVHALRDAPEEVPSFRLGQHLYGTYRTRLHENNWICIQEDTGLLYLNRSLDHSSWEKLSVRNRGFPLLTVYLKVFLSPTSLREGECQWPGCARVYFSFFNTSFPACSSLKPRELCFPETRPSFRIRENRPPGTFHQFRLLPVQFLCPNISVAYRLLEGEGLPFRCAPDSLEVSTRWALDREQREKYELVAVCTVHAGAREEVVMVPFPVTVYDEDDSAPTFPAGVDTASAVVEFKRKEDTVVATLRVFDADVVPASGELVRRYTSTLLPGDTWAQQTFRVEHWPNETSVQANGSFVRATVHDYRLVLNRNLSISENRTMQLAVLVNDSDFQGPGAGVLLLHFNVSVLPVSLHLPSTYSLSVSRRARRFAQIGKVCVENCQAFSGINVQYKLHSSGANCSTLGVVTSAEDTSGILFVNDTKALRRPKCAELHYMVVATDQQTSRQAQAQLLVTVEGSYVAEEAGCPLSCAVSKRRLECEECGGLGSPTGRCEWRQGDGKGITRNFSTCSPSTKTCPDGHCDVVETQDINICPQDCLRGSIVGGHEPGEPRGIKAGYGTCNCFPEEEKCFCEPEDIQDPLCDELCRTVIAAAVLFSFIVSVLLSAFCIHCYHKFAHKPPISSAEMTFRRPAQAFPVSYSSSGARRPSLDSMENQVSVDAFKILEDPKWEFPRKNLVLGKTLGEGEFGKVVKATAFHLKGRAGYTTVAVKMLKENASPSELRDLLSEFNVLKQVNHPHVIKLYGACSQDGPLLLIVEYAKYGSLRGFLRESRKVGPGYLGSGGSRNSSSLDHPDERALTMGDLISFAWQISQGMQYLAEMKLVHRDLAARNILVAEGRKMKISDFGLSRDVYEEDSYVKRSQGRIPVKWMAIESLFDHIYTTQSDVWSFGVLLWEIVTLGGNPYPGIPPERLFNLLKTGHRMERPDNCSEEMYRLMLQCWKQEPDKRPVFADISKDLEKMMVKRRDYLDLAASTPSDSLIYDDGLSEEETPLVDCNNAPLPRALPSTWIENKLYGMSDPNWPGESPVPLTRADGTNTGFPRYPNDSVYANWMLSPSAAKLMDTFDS
- ASSAY CONDITIONS: at 1 µM
MEASUREMENT TYPE: inhibition (%)
Give bare numbers, in %.

Reference set (4 entries):
- COMPOUND STRUCTURE STRING: "O=C(Nc1ccc(Oc2ccc3[nH]c(NC(=O)c4ccco4)nc3c2)cc1)Nc1cc(C(F)(F)F)ccc1F"
  MEASURED TARGET: "Proto-oncogene tyrosine-protein kinase receptor Ret (Homo sapiens) (UniProt P07949)"
  MEASURED: 84.2
- COMPOUND STRUCTURE STRING: "Nc1nccc(-c2c(-c3ccc(F)cc3)ncn2CCCN2CCOCC2)n1"
  MEASURED TARGET: "Proto-oncogene tyrosine-protein kinase receptor Ret (Homo sapiens) (UniProt P07949)"
  MEASURED: 5.26
- COMPOUND STRUCTURE STRING: "Cc1ccc2c(-c3ccnc(Nc4ccc5c(c4)OCCO5)n3)c(-c3ccc(C(F)(F)F)cc3)nn2n1"
  MEASURED TARGET: "Proto-oncogene tyrosine-protein kinase receptor Ret (Homo sapiens) (UniProt P07949)"
  MEASURED: 3.09
- COMPOUND STRUCTURE STRING: "C[C@@H](Oc1cc(-n2cnc3ccc(OC[C@@H](O)CO)cc32)sc1C(N)=O)c1ccccc1Cl"
  MEASURED TARGET: "Proto-oncogene tyrosine-protein kinase receptor Ret (Homo sapiens) (UniProt P07949)"
  MEASURED: 7.49

Then there is this compound:
**Q:** Consider the compound `COc1cccc(-n2ncc3c(N/N=C/c4ccc(S(C)(=O)=O)cc4)ncnc32)c1` and give its measured inhibition.
**A:** 30.7

---

Record form. Attribute: inhibition. Fill in for each entry.
- MEASURED TARGET: Phosphatidylinositol 4,5-bisphosphate 3-kinase catalytic subunit alpha isoform (Homo sapiens) (UniProt P42336);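 also: values are mean percent inhibition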
- Sequence (P42336 whole entry, canonical isoform): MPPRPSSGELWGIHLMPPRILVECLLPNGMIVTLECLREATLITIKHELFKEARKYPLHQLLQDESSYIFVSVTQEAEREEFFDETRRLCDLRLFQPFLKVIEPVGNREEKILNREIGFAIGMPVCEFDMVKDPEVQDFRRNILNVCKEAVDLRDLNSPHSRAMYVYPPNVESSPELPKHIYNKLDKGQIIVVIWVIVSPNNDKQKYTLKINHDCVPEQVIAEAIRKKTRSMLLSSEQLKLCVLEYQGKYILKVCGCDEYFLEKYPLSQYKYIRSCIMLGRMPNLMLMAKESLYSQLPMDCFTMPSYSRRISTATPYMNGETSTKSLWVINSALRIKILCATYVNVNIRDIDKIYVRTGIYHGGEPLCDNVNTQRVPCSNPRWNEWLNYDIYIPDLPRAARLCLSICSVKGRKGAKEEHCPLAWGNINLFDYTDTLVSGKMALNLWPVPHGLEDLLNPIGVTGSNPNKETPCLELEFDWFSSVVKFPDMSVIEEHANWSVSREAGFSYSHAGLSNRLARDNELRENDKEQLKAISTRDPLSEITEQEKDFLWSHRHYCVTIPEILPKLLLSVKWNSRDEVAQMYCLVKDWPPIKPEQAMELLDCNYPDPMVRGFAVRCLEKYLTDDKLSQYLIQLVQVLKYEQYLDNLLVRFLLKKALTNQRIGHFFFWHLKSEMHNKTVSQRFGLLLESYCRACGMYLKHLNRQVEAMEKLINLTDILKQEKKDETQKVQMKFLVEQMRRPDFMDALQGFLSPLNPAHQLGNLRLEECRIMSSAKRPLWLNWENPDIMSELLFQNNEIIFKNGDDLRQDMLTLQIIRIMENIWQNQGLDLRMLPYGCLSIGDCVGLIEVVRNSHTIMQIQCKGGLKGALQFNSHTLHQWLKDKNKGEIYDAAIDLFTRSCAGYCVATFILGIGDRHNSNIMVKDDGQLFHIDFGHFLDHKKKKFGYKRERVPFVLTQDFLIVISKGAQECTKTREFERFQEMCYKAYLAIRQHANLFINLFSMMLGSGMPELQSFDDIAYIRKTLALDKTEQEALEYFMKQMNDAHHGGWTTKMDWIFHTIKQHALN
- ASSAY CONDITIONS: at 1 µM
One number for each entry, in %.

- COMPOUND STRUCTURE STRING: "Cc1ccc2c(-c3ccnc(Nc4cccc(C(F)(F)F)c4)n3)c(-c3ccccc3)nn2n1"
  MEASUREMENT TYPE: "inhibition"
  VALUE UNIT: "%"
  MEASURED: 5.13

Batch lookup, inhibition per entry.
1. O=C1Nc2ccccc2/C1=C/Nc1ccc2[nH]c(=O)[nH]c2c1
2. Cc1cc(-c2ccccn2)cc(C)c1/C=C/c1cncc(-c2nn[nH]n2)c1

**A:**
[4.19, 3.72]

For every item below, please supply its inhibition.
1. CC(C)c1ccc(Nc2nccc(-c3cnn4ncccc34)n2)cc1
2. C[C@@H](Oc1cc(-n2cnc3ccc(OC[C@@H](O)CO)cc32)sc1C(N)=O)c1ccccc1Cl

**A:**
1: 4.52; 2: 13.4

---

- MEASURED TARGET: Tyrosine-protein kinase Tec (Homo sapiens) (UniProt P42680);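 also: each value is the mean of the inhibition measurements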
- Sequence (P42680 whole entry): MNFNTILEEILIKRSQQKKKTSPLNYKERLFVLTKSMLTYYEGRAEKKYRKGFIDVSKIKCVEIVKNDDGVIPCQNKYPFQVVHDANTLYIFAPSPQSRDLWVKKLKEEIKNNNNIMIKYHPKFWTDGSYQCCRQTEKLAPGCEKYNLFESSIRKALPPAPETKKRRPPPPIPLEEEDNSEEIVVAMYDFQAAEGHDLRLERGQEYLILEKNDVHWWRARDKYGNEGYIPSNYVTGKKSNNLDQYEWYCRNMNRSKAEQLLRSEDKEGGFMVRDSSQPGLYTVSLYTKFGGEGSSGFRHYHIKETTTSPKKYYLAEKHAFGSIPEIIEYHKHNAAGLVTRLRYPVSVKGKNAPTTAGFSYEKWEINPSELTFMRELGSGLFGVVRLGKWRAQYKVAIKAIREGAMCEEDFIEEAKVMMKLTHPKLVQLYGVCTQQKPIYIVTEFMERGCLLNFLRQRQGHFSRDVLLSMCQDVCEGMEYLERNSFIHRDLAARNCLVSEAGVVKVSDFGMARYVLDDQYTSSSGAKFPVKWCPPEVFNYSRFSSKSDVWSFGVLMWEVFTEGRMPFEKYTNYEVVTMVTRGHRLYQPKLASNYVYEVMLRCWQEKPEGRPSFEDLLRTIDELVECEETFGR
- ASSAY CONDITIONS: at 1 µM
MEASUREMENT TYPE: inhibition (%)
Give bare numbers, in %.

Worked examples, 2 compounds total:
- COMPOUND STRUCTURE STRING: "CN(C)c1cc2c(Nc3ccc4c(cnn4Cc4ccccc4)c3)ncnc2cn1"
  inhibition / %: 9.92
- COMPOUND STRUCTURE STRING: "COc1ccc(-c2nn3ncccc3c2-c2ccnc(Nc3cccc(C(F)(F)F)c3)n2)cc1"
  inhibition / %: 4.73

For every item below, please supply its inhibition.
1. COC(=O)c1ccc2c(c1)C(=Cc1cc(Br)c(O)c(Br)c1)C(=O)N2
2. CS(=O)(=O)CCNCc1nc(-c2ccc3ncnc(Nc4ccc(OCc5cccc(C(F)(F)F)c5)cc4)c3c2)cs1
3. Cc1ccc(O)cc1Nc1ccnc2ccc(S(C)(=O)=O)cc12
4. CN(c1ccc(NC(=O)Nc2ccc(OC(F)(F)F)cc2)cc1)c1ccnc(Nc2cccc(S(N)(=O)=O)c2)n1
5. Nc1ccc(C#Cc2cncnc2Nc2ccc(OCc3cccc(F)c3)c(Cl)c2)cc1
6. CN1CCN(C(=O)c2ccc(NC(=O)Nc3ccc(N(C)c4ccnc(Nc5ccc(CS(C)(=O)=O)cc5)n4)cc3)cc2)CC1

**A:**
7.75
5.07
82.7
7.04
3.77
37.1

Parameter requested: inhibition. Apply to each item below.
1. O=C1Nc2ccccc2/C1=C/Nc1ccc2[nH]c(=O)[nH]c2c1
2. Cc1ccc(NC(=O)CC2CC2)cc1-c1ccc(C(=O)NCC2CC2)cc1
3. C[C@@H](Oc1cc(-n2cnc3ccc(OC[C@@H](O)CO)cc32)sc1C(N)=O)c1ccccc1Cl
4. CCn1c(-c2nonc2N)nc2c(C#CC(C)(C)O)nc(OCCNC)cc21
5. COc1ccc2ncnc(Nc3ccc(OCc4ccccc4)cc3)c2c1
6. c1ccc(Cc2nc3ccc(Nc4ncnc5ccccc45)cc3[nH]2)cc1

**A:**
1: 13.8; 2: 8.67; 3: -0.09; 4: 3.22; 5: 4.49; 6: 8.08

# batch size: 5; output inhibition per entry
1. ON=C1CCc2cc(-c3nc(C4CCNCC4)[nH]c3-c3ccncc3)ccc21
2. OCc1ccc(-c2nc(-c3ccccn3)c(-c3ccc4c(c3)OCO4)[nH]2)cc1
3. COc1cc(/C=N/Nc2ncnc3c2cnn3C(C)C)ccc1O
4. NC(=O)c1sc(-n2cnc3ccccc32)cc1OCc1ccccc1Br
5. FC(F)(F)c1ccc(-c2nn3ncccc3c2-c2ccnc(Nc3ccc4c(c3)OCCO4)n2)cc1

**A:**
2.88
11.1
13.6
4.76
5.21

**Q:** For the compound shown here, `c1ccc(Nc2ncc(-c3ccccc3)o2)cc1` , give the reported inhibition.
**A:** 8.61

---

- MEASURED TARGET: Mitogen-activated protein kinase 14 (Homo sapiens);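 also: values are mean percent inhibition of p38α kinase from the GSK PKIS published kinase inhibitor set screen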
- ASSAY CONDITIONS: at 0.1 µM
Record Satisfied whenever inhibition is at 6% or higher; record Not satisfied when lower.

For orientation, consider the following solved cases.
- COMPOUND STRUCTURE STRING: "Cc1ccc2c(-c3ccnc(Nc4cccc(C(F)(F)F)c4)n3)c(-c3ccccc3)nn2n1"
  LABEL: "Satisfied"
- COMPOUND STRUCTURE STRING: "CN(C)C(=O)O[C@@H]1CN[C@@H](C#Cc2cc3ncnc(Nc4ccc(OCc5cccc(F)c5)c(Cl)c4)c3s2)C1"
  LABEL: "Not satisfied"
- COMPOUND STRUCTURE STRING: "COc1cccc(-n2nc(C)c3c(N/N=C(\\C)c4ccncc4)ncnc32)c1"
  LABEL: "Not satisfied"

**Q:** Has `COc1cc2ncn(-c3cc(OCc4ccccc4S(C)(=O)=O)c(C#N)s3)c2cc1OC` a recorded inhibition greater than or equal to 6%?
**A:** Not satisfied

**Q:** Could you tell me if the measured inhibition of `COc1ccc(-c2nn3ncccc3c2-c2ccnc(Nc3cccc(C(F)(F)F)c3)n2)cc1` reaches 6% or more?
**A:** Satisfied

---

Provide the recorded inhibition for the entries that follow.
- MEASURED TARGET: Ephrin type-B receptor 3 (Homo sapiens);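 also: reported value is the mean percent inhibition of EPHB3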
- Sequence (whole entry): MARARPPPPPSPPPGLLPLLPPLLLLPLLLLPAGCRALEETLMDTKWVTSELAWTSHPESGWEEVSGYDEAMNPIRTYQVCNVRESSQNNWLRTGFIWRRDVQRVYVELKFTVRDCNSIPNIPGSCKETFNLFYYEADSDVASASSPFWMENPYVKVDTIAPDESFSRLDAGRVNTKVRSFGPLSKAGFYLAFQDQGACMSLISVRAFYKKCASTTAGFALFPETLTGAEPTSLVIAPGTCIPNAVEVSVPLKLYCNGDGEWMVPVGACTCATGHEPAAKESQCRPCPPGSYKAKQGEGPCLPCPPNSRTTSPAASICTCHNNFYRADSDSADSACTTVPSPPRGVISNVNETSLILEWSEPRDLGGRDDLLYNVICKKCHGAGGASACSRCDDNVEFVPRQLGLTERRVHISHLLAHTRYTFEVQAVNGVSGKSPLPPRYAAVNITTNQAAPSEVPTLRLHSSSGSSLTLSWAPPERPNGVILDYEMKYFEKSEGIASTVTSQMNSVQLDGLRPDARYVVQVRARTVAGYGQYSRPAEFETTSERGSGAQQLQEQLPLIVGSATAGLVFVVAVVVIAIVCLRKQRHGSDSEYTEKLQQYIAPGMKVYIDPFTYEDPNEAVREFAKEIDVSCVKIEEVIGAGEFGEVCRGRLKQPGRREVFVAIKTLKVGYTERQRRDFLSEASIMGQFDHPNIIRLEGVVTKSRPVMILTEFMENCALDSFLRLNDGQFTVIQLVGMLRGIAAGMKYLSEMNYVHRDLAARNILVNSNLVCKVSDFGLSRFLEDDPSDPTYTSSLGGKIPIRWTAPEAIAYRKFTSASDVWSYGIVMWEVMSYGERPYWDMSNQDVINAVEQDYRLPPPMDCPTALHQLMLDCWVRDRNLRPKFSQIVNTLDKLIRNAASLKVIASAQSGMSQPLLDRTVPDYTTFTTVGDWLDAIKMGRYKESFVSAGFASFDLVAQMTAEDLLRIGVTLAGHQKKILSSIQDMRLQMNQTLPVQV
- ASSAY CONDITIONS: at 0.1 µM
One number for each entry, in %.

- MOLECULE: "O=S(=O)(CCOCc1ccc(-c2ccc3ncnc(Nc4ccc(OCc5cccc(F)c5)c(Cl)c4)c3c2)o1)c1ccccc1"
  VALUE UNIT: "%"
  inhibition: -0.47
- MOLECULE: "O=C1Nc2ccccc2/C1=C/Nc1ccc2[nH]c(=O)[nH]c2c1"
  VALUE UNIT: "%"
  inhibition: 6.46
- MOLECULE: "Nc1nccc(C#Cc2cncnc2Nc2ccc(OCc3cccc(F)c3)c(Cl)c2)n1"
  VALUE UNIT: "%"
  inhibition: 5.26
- MOLECULE: "NS(=O)(=O)c1cccc(Nc2cc(-c3ccc(F)cc3)n[nH]2)c1"
  VALUE UNIT: "%"
  inhibition: 3.94
- MOLECULE: "Cc1cc(O)cc(C)c1/C=C/c1cncc(C(=O)N(C)C)c1"
  VALUE UNIT: "%"
  inhibition: 5.26
- MOLECULE: "CCS(=O)(=O)c1ccc(OC)c(Nc2nccc(N(C)c3ccc4c(C)n[nH]c4c3)n2)c1"
  VALUE UNIT: "%"
  inhibition: 2.23
- MOLECULE: "CN(C)c1cc2c(Nc3ccc4c(cnn4Cc4ccccc4)c3)ncnc2cn1"
  VALUE UNIT: "%"
  inhibition: 4.69
- MOLECULE: "COc1cccc(-n2nc(C)c3c(N/N=C(\\C)c4ccncc4)ncnc32)c1"
  VALUE UNIT: "%"
  inhibition: 1.98
- MOLECULE: "CCOc1nccc2c1nc(-c1nonc1N)n2CC"
  VALUE UNIT: "%"
  inhibition: 1.72
- MOLECULE: "CC(C)c1ccc2c(c1)NC(=O)/C2=N/Nc1ccc(S(N)(=O)=O)cc1"
  VALUE UNIT: "%"
  inhibition: 0.49

Would you be so kind as to report inhibition for each listed record?
1. COC(=O)c1cncc(/C=C/c2c(C)cc(O)cc2C)c1
2. Cc1ccc2c(-c3ccnc(Nc4cccc(C(F)(F)F)c4)n3)c(-c3ccccc3)nn2n1
3. COc1cc2ncn(-c3cc(OCc4ccccc4S(C)(=O)=O)c(C#N)s3)c2cc1OC
4. NS(=O)(=O)c1ccc(-c2cc3ccncc3cc2OCc2ccccc2)cc1
5. CN(C)C(=O)O[C@@H]1CN[C@@H](C#Cc2cc3ncnc(Nc4ccc(OCc5cccc(F)c5)c(Cl)c4)c3s2)C1
6. Cc1ccc2c(c1)/C(=N/Nc1ccc(S(N)(=O)=O)cc1)C(=O)N2
7. CCCN1CCCC(c2ccc(Nc3nc(Nc4cc(F)ccc4C(N)=O)c4cc[nH]c4n3)c(OC)c2)C1 (stereo not drawn)
8. O=C1Nc2ccc(-c3cccnc3)cc2C1=Cc1cc(Br)c(O)c(Br)c1

**A:**
[6.09, 3.61, 5.99, 5.73, 2.5, 2.46, 6.2, 4.6]

Batch request: inhibition per item, same order as input.
1. COC(=O)Nc1nc2cc(Oc3ccc(NC(=O)Nc4cccc(Br)c4)cc3)ccc2[nH]1
2. CC(C)c1ccc(Nc2nccc(-c3cnn4ncccc34)n2)cc1
3. COc1ccc(-c2nn3ncccc3c2-c2ccnc(Nc3cccc(C(F)(F)F)c3)n2)cc1
4. COc1cccc(-n2ncc3c(N/N=C/c4ccc(C)cc4)ncnc32)c1
5. CN(C)C(=O)O[C@H]1CN[C@H](C#Cc2cc3ncnc(Nc4ccc(OCc5cccc(F)c5)c(Cl)c4)c3s2)C1
6. FC(F)(F)c1ccc(-c2nn3ncccc3c2-c2ccnc(Nc3ccc4c(c3)OCCO4)n2)cc1
7. c1ccc(Nc2ncc(-c3ccccc3)o2)cc1

**A:**
1: 5.42; 2: 6.52; 3: 3.95; 4: 2.7; 5: 4.55; 6: -5.93; 7: 2.14

Need inhibition for each of these molecules.
1. ON=C1CCc2cc(-c3nc(C4CCNCC4)[nH]c3-c3ccncc3)ccc21
2. Cc1nc(-c2ccccc2)n2nc(NCCCN3CCOCC3)ncc12
3. COc1cccc(-n2ncc3c(N/N=C/c4ccc(S(C)(=O)=O)cc4)ncnc32)c1
4. Nc1nccc(-c2c(-c3ccc(F)cc3)nn3cc(C(F)(F)F)ccc23)n1
5. NS(=O)(=O)c1ccc(Nc2cc(-c3cccc(O)c3)n[nH]2)cc1
6. CN(c1ccc(NC(=O)Nc2ccc(OC(F)(F)F)cc2)cc1)c1ccnc(Nc2cccc(S(N)(=O)=O)c2)n1
7. C[C@@H](Oc1cc(-n2cnc3ccc(OCC4CCN(C)CC4)cc32)sc1C(N)=O)c1ccccc1C(F)(F)F

**A:**
1. 2.51
2. 2.93
3. -0.24
4. -0.56
5. 8.13
6. 3.87
7. -3.13
